Tested target: UniProt Q9H3N8
Sequence (Q9H3N8 whole entry): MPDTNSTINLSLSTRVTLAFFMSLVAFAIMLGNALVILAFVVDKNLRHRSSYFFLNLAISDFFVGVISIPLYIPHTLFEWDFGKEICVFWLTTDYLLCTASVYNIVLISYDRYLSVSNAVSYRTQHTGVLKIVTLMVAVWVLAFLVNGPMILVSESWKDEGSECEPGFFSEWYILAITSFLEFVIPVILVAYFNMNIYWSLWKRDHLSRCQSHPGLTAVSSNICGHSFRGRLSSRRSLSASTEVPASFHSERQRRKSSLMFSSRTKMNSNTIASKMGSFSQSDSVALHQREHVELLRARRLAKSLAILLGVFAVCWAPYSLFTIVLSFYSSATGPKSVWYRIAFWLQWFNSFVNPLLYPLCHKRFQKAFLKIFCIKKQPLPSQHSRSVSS
Test name: Displacement of [3H]histamine from human histamine H4 receptor expressed in […] cells at 5 uM
Type: cell-based
Condition context: SK-N-MC
Could you please report measured Activity for the items listed next?
Answers are plain numbers, in %.

Please review the entries below; each comes with its answer.
Qu. For the molecule CC(/C=C(\C)NNC(=N)N)=N/NC(=N)N , what Activity is on record?
Ans. 64.3

Qu. For the molecule COc1cccc(C2NCCc3[nH]cnc32)c1 (stereo unspecified) , what Activity is on record?
Ans. 20.9

Qu. For the molecule CN(C)CCCNC(=O)/C(=C\c1cn(-c2ccccc2)nc1-c1ccc(Br)cc1)NC(=O)c1ccccc1 , what Activity is on record?
Ans. 29.4

Qu. For the molecule N=C(N)NC(=N)Nc1ccc(Cl)cc1C(=O)c1ccccc1 , what Activity is on record?
Ans. 37.1

Qu. For the molecule C[n+]1cccc(NC(=O)c2ccc(NC(=O)c3ccc(C(=O)Nc4ccc(NC(=N)N)cc4)cc3)cc2)c1 , what Activity is on record?
Ans. 26

Qu. For the molecule NCCNC(=O)c1cc2ccccc2[nH]1 , what Activity is on record?
Ans. 46.9

Return reported Activity values for all items listed beneath this line.
1. CN1CCN(c2ccccc2NC(=S)NC(=O)c2cc3ccccc3o2)CC1
2. N=C(N)NN=C1C=CC(=NNC(=N)N)C=C1

Ans.
[50.3, 44]

Return reported Activity values for all items listed beneath this line.
1. C/N=C(\N)N/N=C(/C)c1ccc2sc3ccc(/C(C)=N\N/C(N)=N/C)cc3c2c1
2. Cc1cc(C)nc(N/C(N)=N/CCc2c[nH]cn2)n1
3. N=C(N)NCc1cccc(CNC(=N)N)n1

Ans.
72
95.8
67.8
